Source of measurements: PubChem BioAssay AID1745844

System: rodent lifetime carcinogenesis bioassay, tumor incidence TD50
Assay info: carcinogenic potency in animals, long-term in vivo studies, CPDB compilation (AID 1745844)
Assay setup: rat; strain Wistar; males; in feed; site: liver; lesion: several types; types named in the paper; dosed 59 weeks; study length 59 weeks
Parameter measured: TD50

Return the recorded TD50 value; entry: CC(C)(Oc1ccc(C2CCCc3ccccc32)cc1)C(=O)O (stereo unspecified) 22.1 mg/kg/day

###

Test system: rodent lifetime carcinogenesis bioassay, tumor incidence TD50
Assay info: carcinogenic potency in animals, long-term in vivo studies, CPDB compilation (AID 1745844)
Assay setup: mouse; strain ddNi; males; in feed; site: liver; lesion: adenoma-like tumor; dosed 160 weeks; study length 160 weeks
Parameter measured: TD50

Look up and state reported TD50 for Cc1cc(O)c2c(c1O)C(=O)C13C(=C2O)C(=O)C2C(O)C1C1C(O)C3C(=O)C3=C(O)c4c(O)cc(C)c(O)c4C(=O)C321 (stereo unspecified) 113 mg/kg/day

###

Test system: rodent lifetime carcinogenesis bioassay, tumor incidence TD50
Assay info: carcinogenic potency in animals, long-term in vivo studies, CPDB compilation (AID 1745844)
Assay setup: mouse; strain Swiss albino; females; in drinking water; site: lung; lesion: adenocarcinoma; dosed 99 weeks; study length 99 weeks
Parameter measured: TD50 (mg/kg/day)
Unit mg/kg/day implied. Number only.

For the compound `CCCNN` , give its measured TD50 value. 109

###

Tested on: rodent lifetime carcinogenesis bioassay, tumor incidence TD50
Assay info: carcinogenic potency in animals, long-term in vivo studies, CPDB compilation (AID 1745844)
Assay setup: mouse; strain Swiss; females; inhaled; site: any site (literature study); lesion: several types; types named in the paper; dosed 30 weeks; study length 77 weeks
Parameter measured: TD50 (mg/kg/day)
Give just the numeric value; mg/kg/day need not be written.

Output measured TD50 for this item: `C=CCl` 600

###

System: rodent lifetime carcinogenesis bioassay, tumor incidence TD50
Assay info: carcinogenic potency in animals, long-term in vivo studies, CPDB compilation (AID 1745844)
Assay setup: mouse; strain A x IF; females; in feed; site: urinary bladder; lesion: carcinoma; dosed 100 weeks; study length 100 weeks
Parameter measured: TD50

Please look at `CCS(=O)(=O)c1ccc(S(N)(=O)=O)c2ccccc12` and tell me its recorded TD50 on rodent lifetime carcinogenesis bioassay, tumor incidence TD50. 34.2 mg/kg/day

###

System: rodent lifetime carcinogenesis bioassay, tumor incidence TD50
Assay info: carcinogenic potency in animals, long-term in vivo studies, CPDB compilation (AID 1745844)
Assay setup: mouse; strain B6C3F1; males; in feed; site: stomach, nonglandular; lesion: squamous-cell papilloma; dosed 104 weeks; study length 104 weeks
Parameter measured: TD50 (mg/kg/day)
Report the figure in mg/kg/day without appending any unit label.

Give recorded TD50. `O=C1c2ccccc2C(=O)N1SC(Cl)(Cl)Cl` 12900

###

Tested on: rodent lifetime carcinogenesis bioassay, tumor incidence TD50
Assay info: carcinogenic potency in animals, long-term in vivo studies, CPDB compilation (AID 1745844)
Assay setup: rat; strain Fischer 344; males; in feed; site: liver; lesion: hepatocellular carcinoma; dosed 75 weeks; study length 82 weeks
Parameter measured: TD50

Tell me its TD50 given `Cc1cccc(Nc2cc(Cl)nc(SCC(=O)NCCO)n2)c1C` as the entry. 6.49 mg/kg/day

###

Test system: rodent lifetime carcinogenesis bioassay, tumor incidence TD50
Assay info: carcinogenic potency in animals, long-term in vivo studies, CPDB compilation (AID 1745844)
Assay setup: rat; strain Charles River CD (Sprague-Dawley); males; in feed; site: liver; lesion: hepatocellular adenoma; dosed 68 weeks; study length 68 weeks
Parameter measured: TD50 (mg/kg/day)
A number alone suffices; assume mg/kg/day.

// fetch TD50 given entry `Cc1cc(Cc2ccc(N)c(C)c2)ccc1N` 17

###

System: rodent lifetime carcinogenesis bioassay, tumor incidence TD50
Assay info: carcinogenic potency in animals, long-term in vivo studies, CPDB compilation (AID 1745844)
Assay setup: rat; strain Sprague-Dawley; females; in feed; site: any site (literature study); lesion: several types; types named in the paper; dosed 44 weeks; study length 66 weeks
Parameter measured: TD50 (mg/kg/day)
Write the answer as a number in mg/kg/day, unit excluded.

Write down the reported TD50 (system: rodent lifetime carcinogenesis bioassay, tumor incidence TD50) of `OCN(CO)c1nc(N(CO)CO)nc(N(CO)CO)n1` 6.82

###

System: rodent lifetime carcinogenesis bioassay, tumor incidence TD50
Assay info: carcinogenic potency in animals, long-term in vivo studies, CPDB compilation (AID 1745844)
Assay setup: rat; strain Fischer 344; males; in feed; site: urinary bladder; lesion: squamous-cell carcinoma; dosed 74 weeks; study length 74 weeks
Parameter measured: TD50 (mg/kg/day)
// note: answer is a bare numeric in mg/kg/day

Give TD50 for the following molecule: `O=C1c2ccccc2C(=O)c2c(O)c(O)cc(O)c21` 3680

###

Test system: rodent lifetime carcinogenesis bioassay, tumor incidence TD50
Assay info: carcinogenic potency in animals, long-term in vivo studies, CPDB compilation (AID 1745844)
Assay setup: mouse; strain B6C3F1; females; in feed; site: all sites; lesion: lymphoma; dosed 103 weeks; study length 105 weeks
Calls of active or inactive are those of the source. How the calls were made is not given here.
Parameter: TD50. Scope: all listed entries.

>>> result("Oc1ccc2ccccc2c1N=Nc1ccccc1")
"128 mg/kg/day (inactive)"

Quote TD50 reported for `CC(=O)Nc1ccc(N=Nc2cc(C)ccc2O)cc1` please. 1680 mg/kg/day

###

System: rodent lifetime carcinogenesis bioassay, tumor incidence TD50
Assay info: carcinogenic potency in animals, long-term in vivo studies, CPDB compilation (AID 1745844)
Assay setup: rat; strain Fischer 344; males; in feed; site: multiple organs; lesion: sarcoma, NOS; dosed 102 weeks; study length 104 weeks
Parameter measured: TD50

Read off the recorded TD50 for `Cc1ccccc1N` 394 mg/kg/day

###

Test system: rodent lifetime carcinogenesis bioassay, tumor incidence TD50
Assay info: carcinogenic potency in animals, long-term in vivo studies, CPDB compilation (AID 1745844)
Assay setup: rat; strain Fischer 344; males; in feed; site: any site (literature study); lesion: several types; types named in the paper; dosed 103 weeks; study length 106 weeks
Active and inactive are the calls of the source. How the calls were made is not given here.
Parameter measured: TD50

Entry `Nc1cccc2c(N)cccc12` needs its TD50 filled in; supply it. 48.1 mg/kg/day (inactive)

###

Test system: rodent lifetime carcinogenesis bioassay, tumor incidence TD50
Assay info: carcinogenic potency in animals, long-term in vivo studies, CPDB compilation (AID 1745844)
Assay setup: rat; strain Sprague-Dawley; females; i.p.; site: uterus; lesion: adenocarcinoma, NOS; dosed 36 weeks; study length 79 weeks
Parameter measured: TD50 (mg/kg/day)
Give the number; mg/kg/day is assumed, so skip it.

Specify reported TD50 for the molecule shown: `S=P(N1CC1)(N1CC1)N1CC1` 0.236

###

System: rodent lifetime carcinogenesis bioassay, tumor incidence TD50
Assay info: carcinogenic potency in animals, long-term in vivo studies, CPDB compilation (AID 1745844)
Assay setup: mouse; strain Swiss albino; males; in drinking water; site: lung; lesion: several types; types named in the paper; dosed 120 weeks; study length 120 weeks
Parameter measured: TD50 (mg/kg/day)
Answer with a number only, understood to be in mg/kg/day.

Return reported TD50. Input compound: `NNc1ccc(C(=O)O)cc1` 675

###

Test system: rodent lifetime carcinogenesis bioassay, tumor incidence TD50
Assay info: carcinogenic potency in animals, long-term in vivo studies, CPDB compilation (AID 1745844)
Assay setup: hamster; strain Syrian Golden; males; in feed; site: any site (literature study); lesion: several types; types named in the paper; dosed 114 weeks; study length 114 weeks
The source made the active and inactive calls. How the calls were made is not given here.
Parameter measured: TD50

Jot down TD50 (rodent lifetime carcinogenesis bioassay, tumor incidence TD50) of `ClC1=C(Cl)[C@]2(Cl)[C@@H]3[C@@H]4C[C@@H]([C@H]5O[C@@H]45)[C@@H]3[C@@]1(Cl)C2(Cl)Cl` . 69.9 mg/kg/day (inactive)

###

System: rodent lifetime carcinogenesis bioassay, tumor incidence TD50
Assay info: carcinogenic potency in animals, long-term in vivo studies, CPDB compilation (AID 1745844)
Assay setup: rat; strain Fischer 344; females; in feed; site: liver; lesion: hyperplastic nodule; dosed 104 weeks; study length 104 weeks
Activity calls are given as the source filed them. No rule for the calls is given here.
Parameter measured: TD50

# return recorded TD50 for entry `Cc1ccc2ncccc2c1` 230 mg/kg/day (inactive)

###

Test system: rodent lifetime carcinogenesis bioassay, tumor incidence TD50
Assay info: carcinogenic potency in animals, long-term in vivo studies, CPDB compilation (AID 1745844)
Assay setup: rat; strain Wistar-random; males; in feed; site: urinary bladder; lesion: several types; types named in the paper; dosed 78 weeks; study length 78 weeks
Parameter measured: TD50 (mg/kg/day)
Give just the number in mg/kg/day; leave the unit off.

Input `O=C(O)O` , output reported TD50. 6400

###

Test system: rodent lifetime carcinogenesis bioassay, tumor incidence TD50
Assay info: carcinogenic potency in animals, long-term in vivo studies, CPDB compilation (AID 1745844)
Assay setup: mouse; strain (C57BL/6 x BALB/c)F1; females; in feed; site: pituitary gland; lesion: adenocarcinoma; dosed 148 weeks; study length 161 weeks
Parameter measured: TD50 (mg/kg/day)
# unit: mg/kg/day | format: bare number

With rodent lifetime carcinogenesis bioassay, tumor incidence TD50 as the test system, provide measured TD50 for this compound: `CC/C(=C(/CC)c1ccc(O)cc1)c1ccc(O)cc1` 2.01
